- System: velvetleaf
- experiment: Test B pre-/postemergence herbicide test
- Type: in vivo, Abutilon theophrasti
- study_conditions: postemergence, 125 g ai/ha; visual rating, scale 0 (no effect) to 100 (complete control)
Please respond with reported Velvetleaf plant response rating for every item in the list.
Give bare numbers.

{"compound": "C#CCNC(=O)c1ccc(F)c(NC(=O)c2cc(C(C)(C)C)nn2CC)n1 [Compound 279]", "assay_metric": "Velvetleaf plant response rating", "observed_value": 10}
{"compound": "CCNC(=O)c1cncc(NC(=O)c2cc(C(C)(C)C)nn2CC)c1 [Compound 259]", "assay_metric": "Velvetleaf plant response rating", "observed_value": 0}

Give Velvetleaf plant response rating for each listed item.
1. CCn1nc(C(C)(C)C)cc1C(=O)Nc1cccc(OCCCF)c1 [Compound 138]
2. CC(=NO)c1cccc(NC(=O)c2cc(C(C)(C)C)nn2C)c1 [Compound 107]
3. CCc1nn(C(C)(C)C)cc1C(=O)Nc1cc(C(=O)N(C)CC)ccc1F [Compound 224]

## Output
1. 20
2. 0
3. 20
